The measured values listed here are drawn from patent US20250188153A1.

Record form. Attribute: EC50. Fill in for each entry.
# assayedSystem: hMPV B2 F GCN4 (human metapneumovirus)
# methodSummary: ELISA on coated recombinant protein, OD 405 nm
A number alone suffices; assume µg/mL.

Query (binder): MPV414 (antibody, V domains shown) VH: QVQLVQSGPEVKKPGSSVMVSCKTSGGNFNNFAISWVRQAPGQGLEWMGGIVPIFGTANYAQKSQDRVTITADPSSSTAYLQLSSLTSDDTAIYYCARDLGRSSNYYYYSVFESWGQGTLVTVSS VL: DIVMTQSPATLSLSPGERATLSCRASQSVGDKLAWYQQKPGQAPRLLIYGASTRATDIPARFSGSGSGTEFTLTVSSLQPEDFAVYYCQQYENWPPITFGQGTRLEIK ; field requested: EC50
0.061

Query (binder): MPV464 (antibody, V domains shown) VH: QVQLQESGPGLVKPSQTLSLTCTVSGGSVRGGGDYWSWIRRPPGKGLEWIGHIYNSGTTFYNPSLKSRVTISIDTSKNQFSLKLRSVTAADTAVYYCGRVGSRATGLPDWIDPWGQGTLVTVSS VL: SYELTQPPSVSVSPGQTATITCSGTNLGAKYSCWYQQKPGQSPVLVIFQDNKRASGIPARFSASTSGDTATLTISGTQVMDEADYFCQAWDSRTAVFGGGTTLTVL ; field requested: EC50
0.12

Query (binder): MPV454 (antibody, V domains shown) VH: EVQLVESGGGLVKPGGSLRLSCSTSGFVFSSYAMHWVRQAPGKGLEHVSAISSTGDNTHYADSVKGRFTISRDNSRGRLYLQMTSVRPEDAALYYCVKDLYSGRFYYFLDDWGQGTRIIVSS VL: DIQVTQSPSSLSASVGDRVTISCRASQNISNYLNWFQQRPGKAPKLLIYVASTLQSGAPSRFSGSGSGTDFTLTITDLQPEDFATYYCQQSYNTPPITFGQGTRLEIK ; field requested: EC50
0.068

Query (binder): MPV456 (antibody, V domains shown) VH: QVQLQESGPGVVKPSGTLSLTCGVSGGSISSSYWWSWVRQPPGKGLEWIGEIYHSGSTNYNPSLKRRVTISVDKSKNQFSLKVTSVTAADTAVYYCARGPIQYYDILTEERVGYCDYWGQGTLVTVSS VL: TLSASVGDRVTITCRASQSISSWLAWFQQKPGKAPKLLIYKTSSLESGVPSRFSGSGSGTEFTLTISSLQPDDFATYYCQEYNSYSRTFGQGTKVEIK ; field requested: EC50
0.69

Query (binder): MPV477 (antibody, V domains shown) VH: EVQLVQSGAEVKKPGASVEVSCKTSGYTFTDYYLHWVRQAPGQGLEWMGWINPRSGGTKYGQKFQGRVTMTRDTSISTAYMDLRGLRSDDTAVYYCARAPLLTVYAVAHRSGENRFDPWGQGTVTVSS VL: QPPSLSGAPGQTVTISCTGSGSNIGAGYDVNWYQCLPGTAPKLLMFDNSNRPSGVPDRFSGSRSGASASLAITGLQAEDEADYYCQSYDSGLSGWVFGGGTKLTVL ; field requested: EC50
0.037

Query (binder): MPV483 (antibody, V domains shown) VH: EVQLVQSGAELKKPGSSVKVSCKASGDTFSNYAISWVRQAPGQGLEWMGGIIPIYNTANYAQKFQGRVTLTADESTSTAYMELSSLRSEDTAVYYCARDVRNNWSVLRGARYYYYGMDVWGQGTTVTVSS VL: DIVMTQTPFSLSASVGDRVTVTCRASQDISNSLAWFQQKPGKAPKSLIYAASSLQSGVPTRFSGGGSGTDFTLTISSLQPEDFATFYCLQYDSFPPTFGGGTKVEI ; field requested: EC50
0.14

Query (binder): MPV487 (antibody, V domains shown) VH: EVQLLESGGGLVQPGRSLRLSCTASGFTFDDYAMHWVRQLPGKGLEWVSGISWNSDNIGYADSVKGRFTISRDNGKNSLYLQMNSLRAEDTAFYYCAKDVRIDYDLLIGHIDYWGPGTLVTVSS VL: TQSPVTLSLSPGERATLSCRASQSFGGYCAWYQQKPGQSPRLLIYDASNRATGVPARFSGSGSGTDFTLTISSLEPEDSAVYFCQQRGNWPIFGQGTRLEI ; field requested: EC50
0.071

Query (binder): MPV488 (antibody, V domains shown) VH: EVQLVQSGFEVKKPGASVKVSCKASGYNFNNYGISWVRQAPGQGLEWMGWISAYTGNTNEAQKFQGRVSMTTDTSTSTAYMEVRSLRSDDTAVYYCARDIGSSMFYSYFYGMDVWGQGTTVIVSS VL: SLSVSLGERATINCKSSESVLYNSNNENYLDWYQQKPGQPPKLLIYWASTRASGVPDRFSGSASGTDFTLTISSLQAEDVAVYYCQQYYSTPRTFGQGTKVEIK ; field requested: EC50
0.073

Query (binder): MPV467 (antibody, V domains shown) VH: EVQLVESGGGVVRPGTSLRVSCAAFDFNFRDYGMHWVRQAPGKGLEWVAGIWYDGSNKDYADSVKGRFTISRDNSQNTLYLQMNSLRVEDTAVYYCARDPRTHREGALSHFDSWGQGTLVTVSS VL: PNELTQDPAVSVALGQTVRITCQGDSLRNYFAGWYQQKPGQAPLLVLYGENIRPSGIPDRFSGSSSGNTVSLTITGAQAEDEADYYCNSRDNSGNHWVFGGGTRLTVL ; field requested: EC50
0.061

Query (binder): MPV489 (antibody, V domains shown) VH: EVQLLESGGGLVQPGGSLRLSCAASKFTFNNYEMNWLRQAPGKGLEWVSSISSSGDTIHNADSVKGRFIISRDNAKNSLHLQMNGLRAEDTAVYYCARAGSGWAYDAFDIWGLGTMVTVSS VL: LSASVGDRVTITCRASQSISSFLNWYQQKPGKAPKLLMYAASSLPVGVPSRFSGSGSGPEYTLTISNLQPEDFATYYCQQGYSSPPTFGGGTRLEVK ; field requested: EC50
2.3
